Could you please report measured Kd for the items listed next?
# system under test: T1, GDF8 (UniProt O14793 267-375)
# T1 construct: also called myostatin
# T1 sequence (looked up): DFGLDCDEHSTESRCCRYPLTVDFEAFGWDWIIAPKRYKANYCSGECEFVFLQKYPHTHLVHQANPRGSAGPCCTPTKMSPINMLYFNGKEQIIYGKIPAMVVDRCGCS
# assay method text: SPR (Biacore); receptor-Fc captured by anti-hFc antibody, ligand injected
Give bare numbers, in nM.

A selection of reference data follows.
• ActRIIB(20-134)-hFc (Fc fusion, also called ActRIIB-hFc) GRGEAETRECIYYNANWELERTNQSGLERCEGEQDKRLHCYASWRNSSGTIELVKKGCWLDDFNCYDRQECVATEENPQVYFCCCEGNFCNERFTHLPEAGGPEVTYEPPPTAPTGGGTHTCPPCPAPELLGGPSVFLFPPKPKDTLMISRTPEVTCVVVDVSHEDPEVKFNWYVDGVEVHNAKTKPREEQYNSTYRVVSVLTVLHQDWLNGKEYKCKVSNKALPVPIEKTISKAKGQPREPQVYTLPPSREEMTKNQVSLTCLVKGFYPSDIAVEWESNGQPENNYKTTPPVLDSDGSFFLYSKLTVDKSRWQQGNVFSCSVMHEALHNHYTQKSLSLSPGK = 0.0935
• ActRIIB(L79E 20-134)-hFc (Fc fusion) GRGEAETRECIYYNANWELERTNQSGLERCEGEQDKRLHCYASWRNSSGTIELVKKGCWEDDFNCYDRQECVATEENPQVYFCCCEGNFCNERFTHLPEAGGPEVTYEPPPTAPTGGGTHTCPPCPAPELLGGPSVFLFPPKPKDTLMISRTPEVTCVVVDVSHEDPEVKFNWYVDGVEVHNAKTKPREEQYNSTYRVVSVLTVLHQDWLNGKEYKCKVSNKALPVPIEKTISKAKGQPREPQVYTLPPSREEMTKNQVSLTCLVKGFYPSDIAVEWESNGQPENNYKTTPPVLDSDGSFFLYSKLTVDKSRWQQGNVFSCSVMHEALHNHYTQKSLSLSPGK = 2.41
• ActRIIB(L79D 20-134)-hFc (Fc fusion) GRGEAETRECIYYNANWELERTNQSGLERCEGEQDKRLHCYASWRNSSGTIELVKKGCWDDDFNCYDRQECVATEENPQVYFCCCEGNFCNERFTHLPEAGGPEVTYEPPPTAPTGGGTHTCPPCPAPELLGGPSVFLFPPKPKDTLMISRTPEVTCVVVDVSHEDPEVKFNWYVDGVEVHNAKTKPREEQYNSTYRVVSVLTVLHQDWLNGKEYKCKVSNKALPVPIEKTISKAKGQPREPQVYTLPPSREEMTKNQVSLTCLVKGFYPSDIAVEWESNGQPENNYKTTPPVLDSDGSFFLYSKLTVDKSRWQQGNVFSCSVMHEALHNHYTQKSLSLSPGK = 2.15
• ActRIIB(R64K 20-129)-hFc (Fc fusion) GRGEAETRECIYYNANWELERTNQSGLERCEGEQDKRLHCYASWKNSSGTIELVKKGCWLDDFNCYDRQECVATEENPQVYFCCCEGNFCNERFTHLPEAGGPEVTYEPPGGGTHTCPPCPAPELLGGPSVFLFPPKPKDTLMISRTPEVTCVVVDVSHEDPEVKFNWYVDGVEVHNAKTKPREEQYNSTYRVVSVLTVLHQDWLNGKEYKCKVSNKALPVPIEKTISKAKGQPREPQVYTLPPSREEMTKNQVSLTCLVKGFYPSDIAVEWESNGQPENNYKTTPPVLDSDGSFFLYSKLTVDKSRWQQGNVFSCSVMHEALHNHYTQKSLSLSPGK = 2.15

Attention now turns to another entry.
Using the record for ActRIIB(P129S, P130R 20-134)-hFc (Fc fusion) GRGEAETRECIYYNANWELERTNQSGLERCEGEQDKRLHCYASWRNSSGTIELVKKGCWLDDFNCYDRQECVATEENPQVYFCCCEGNFCNERFTHLPEAGGPEVTYEPSRTAPTGGGTHTCPPCPAPELLGGPSVFLFPPKPKDTLMISRTPEVTCVVVDVSHEDPEVKFNWYVDGVEVHNAKTKPREEQYNSTYRVVSVLTVLHQDWLNGKEYKCKVSNKALPVPIEKTISKAKGQPREPQVYTLPPSREEMTKNQVSLTCLVKGFYPSDIAVEWESNGQPENNYKTTPPVLDSDGSFFLYSKLTVDKSRWQQGNVFSCSVMHEALHNHYTQKSLSLSPGK , report its Kd.
1.67
